Reference source: ChEMBL document CHEMBL3507680

Test: Human HepG2 cell viability assay in 384 well format
Assay type: toxicity, cell-based
Parameters: dose 125 nL, time 70.5 hour; concentration not given beside the values
Conditions: HepG2 cells, read-out: Inhibition
The molecules listed here are annotated with their cytotoxicity at 70.5 h.
reported_property: cytotoxicity at 70.5 h (%)

1) CCSc1cncc(N2CCC(C(=O)Nc3ccccn3)CC2)n1: -3.08
2) Cc1cc(C(=O)Nc2cc(C3CC3)n[nH]2)c2c(C)nn(C)c2n1: -12.4
3) Cc1nnn2c1COC(CNCc1ccncc1)C2 (configuration not stated): -15.7
4) Cc1ccc(-c2ccnc(NC(C)c3ncc[nH]3)n2)c(C)n1 (configuration not stated): -10.5
5) COCCn1cnnc1CN(C)c1nc(N)nc2c1CCCC2: 3.03
6) COC(=O)[C@@H]1CCCN1C(=O)c1cn(C/C=C/c2ccccc2)nn1: 24.7
7) COC[C@@H]1CCCN1C(=O)c1cc(-c2ccc(OC)cc2)n[nH]1: -7.57
8) c1ccc(CO[C@H]2CO[C@@]3(CCN(Cc4ccoc4)C3)C2)nc1: -18.7
9) CN(C)C(=O)CN1C[C@@H]2CC[C@H](C1)N(Cc1cc(F)ccc1F)C2: 7.45
10) COc1cc(-c2nccn2C(C)CCn2cccn2)cc2c1OCO2 (configuration not stated): 1.97
11) CC(NC(=O)Nc1ccccc1CN1CCOCC1)c1nccs1 (configuration not stated): -2.17
12) CS(=O)(=O)N1CCCC(C(=O)N2CCOc3ccccc32)C1 (configuration not stated): -14.4
13) CCCc1cc(N2CCC(NCCc3ccc(O)cc3)CC2)nc(C)n1: -4.92
14) OC1CCN(c2cnnc3ccccc23)CC1: 30.5
15) Cc1ccc(CN2CCC3(CCCC(=O)N3)CC2)s1: -3.64
16) CCOc1ccccc1C(CC(=O)Nc1ccccn1)NC(C)=O (configuration not stated): -5.35
17) O=C(NCC1CCS(=O)(=O)C1)Nc1ccccn1 (configuration not stated): 3.81
18) Cc1ccc(CN2C[C@@H]3[C@@H](C2)OCC(=O)N3Cc2ccncc2)s1: 10.5
19) O=C(CC1CCCC1)N1CCCC1c1nc(O)cc(-c2ccccn2)n1 (configuration not stated): -1.16
20) O=C(CCc1cccnc1)N1CCC2(CCN(CC3CCCC3)C2)C1 (configuration not stated): 23.3
21) O=C(Nc1nncs1)NC1CCOc2ccccc21 (configuration not stated): 3.46
22) CCc1nc(C2CCCN(C(=O)c3cn(C)nc3C)C2)no1 (configuration not stated): 36.3
23) CS(=O)(=O)c1ccc(CNC(=O)NCc2cc[nH]n2)cc1: -12.3
24) O=C(CCc1ccccn1)N1CCc2cc(Cl)cc(Cl)c2C1: 29.3
25) CNc1ccnc(N2C[C@@H](C)[C@](O)(C3CC3)C2)n1: -3.1
26) COc1ccc(-c2ccc(C(=O)N3CCOCC3CC(=O)O)o2)cc1 (configuration not stated): -3.78
27) COc1ccc(Cl)cc1C(=O)N1CCCC(n2nc(C)nc2C)C1 (configuration not stated): 27.7
28) O=S1(=O)NCC2(CCCN(Cc3cccnc3)C2)Oc2ncccc21 (configuration not stated): 26.5
29) O=C(C1CNCCN1C(=O)CCc1cccnc1)N1CCOCC1 (configuration not stated): 3.27
30) COc1ccc(Cl)cc1NC(=O)CCNc1ccc(C#N)cn1: -6.33
31) Cc1noc(C)c1CN1CC[C@H]2C[C@@H](c3nccs3)O[C@@H]2C1: -14.7
32) CCC(CC)C(CNC(=O)Nc1ccc(C)cc1)N1CCOCC1 (configuration not stated): -15.7
